Molecular target: T1, human IL2Ra (human, UniProt P01589 22-240, limits assumed)
T1 construct: bought protein, coated on the plate; also called hIL2RA; IL-2 receptor alpha
T1 sequence (looked up): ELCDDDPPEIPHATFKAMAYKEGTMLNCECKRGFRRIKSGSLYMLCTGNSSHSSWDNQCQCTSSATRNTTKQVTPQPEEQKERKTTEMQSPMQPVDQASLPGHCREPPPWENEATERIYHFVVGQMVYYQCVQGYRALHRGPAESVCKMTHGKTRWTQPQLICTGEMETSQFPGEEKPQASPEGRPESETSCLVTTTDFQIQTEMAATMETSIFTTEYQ
Experiment: IL2Ra direct binding ELISA, signal ratio to isotype control
Use 300 ratio as the dividing line for hIL2RA ELISA Binding: Ratio to Isotpye, with the line itself on the t side and lower values as f.

Answered cases to consult:
BINDER: TPP-26308 (antibody, V domains shown) VH: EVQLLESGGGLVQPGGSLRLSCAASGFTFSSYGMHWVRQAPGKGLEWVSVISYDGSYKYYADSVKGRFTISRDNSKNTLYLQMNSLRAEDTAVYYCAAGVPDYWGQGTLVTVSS VL: QSVLTQPPSASGTPGQRVTISCTGSSSNIGAGYDVHWYQQLPGTAPKLLIYSNNERPSGVPDRFSGSKSGTSASLAISGLRSEDEADYYCAAWDVSLNGPVFGGGTKLTVL
CAT: f

BINDER: TPP-26317 (antibody, V domains shown) VH: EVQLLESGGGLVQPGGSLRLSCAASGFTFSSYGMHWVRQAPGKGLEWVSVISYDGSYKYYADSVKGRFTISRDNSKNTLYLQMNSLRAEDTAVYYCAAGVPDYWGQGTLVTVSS VL: QSVLTQPPSASGTPGQRVTISCTGSSSNIGAEYDVHWYQQLPGTAPKLLIYSNNERPSGVPDRFSGSKSGTSASLAISGLRSEDEADYYCAAWDDSLNGPVFGGGTKLTVL
CAT: f

BINDER: TPP-26330 (antibody, V domains shown) VH: EVQLLESGGGLVQPGGSLRLSCAASGFTFSFYGMHWVRQAPGKGLEWVSVISYDGSYKYYADSVKGRFTISRDNSKNTLYLQMNSLRAEDTAVYYCAAGVPDYWGQGTLVTVSS VL: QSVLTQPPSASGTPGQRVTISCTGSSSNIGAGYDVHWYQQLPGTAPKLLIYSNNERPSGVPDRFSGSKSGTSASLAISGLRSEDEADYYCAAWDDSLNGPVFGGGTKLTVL
CAT: f

Answer whether hIL2RA ELISA Binding: Ratio to Isotpye of TPP-26292 (antibody, V domains shown) VH: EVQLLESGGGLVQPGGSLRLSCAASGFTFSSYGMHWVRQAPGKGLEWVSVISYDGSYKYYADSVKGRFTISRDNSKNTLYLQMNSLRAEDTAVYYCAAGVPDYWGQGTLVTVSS VL: QSVLTQPPSASGTPGQRVTISCTGSSSNIGAGYDVHWYQQLPGTAPKLLIYSNNERPSGVPDRFSGSKSGTSASLAISGLRSEDEADYYCAAWDESLNGPVFGGGTKLTVL is greater than or equal to 300 ratio.
t

Answer whether hIL2RA ELISA Binding: Ratio to Isotpye of TPP-26297 (antibody, V domains shown) VH: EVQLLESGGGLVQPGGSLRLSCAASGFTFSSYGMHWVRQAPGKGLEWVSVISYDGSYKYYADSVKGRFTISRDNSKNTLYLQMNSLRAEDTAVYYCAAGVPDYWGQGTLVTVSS VL: QSVLTQPPSASGTPGQRVTISCTGSSSNIGAGYDVHWYQQLPGTAPKLLIYSNNERPSGVPDRFSGSKSGTSASLAISGLRSEDEADYYCAAWQDSLNGPVFGGGTKLTVL is greater than or equal to 300 ratio.
f
